tested on: TO-3-N3-2 (biotin conjugate); test: pull-down binding Z-score (relative to library population); higher = stronger binding; conditions: RNA library: Library-2
pull-down binding Z-score vs 0.1: at or above is Condition met, below is Condition not met.

CAAAUGUGCCUUUCAACUCUCAUGAAGUGUGAUCAUUGUGGUGAAACUUCAUGGCAGACGGGCGAUUUUG = Condition not met
AUCAUCUCUCCCUUGGAU [hsa-mir-3683] = Condition not met

Ask: For this sequence, is measured pull-down binding Z-score 0.1 or higher? GUUCGGAUGCUCGAACUGCACCUCAUGGUCAUGUUAUGGUUGAGCUGGUAGCAGAACUCGAAGGCAUUCAGUAC [DMSMaPseq_invitro_SARS-CoV-2_Motif_11]
Reply: Condition not met

Ask: Now give it for GUUCUUUGAGAAC [IAV_invivo_PA_3_Motif_25+IAV_invivo_PA_3_Motif_25] too.
Reply: Condition not met

Ask: Now give it for CUGUUGAUUCAUCACAG too.
Reply: Condition met

Ask: Now give it for GGGUUUACAAACAAUUUGAUACUUAUAACCU [DMSMaPseq_invitro_SARS-CoV-2_Motif_347] too.
Reply: Condition not met

Ask: Now give it for AGGGCAAGUCCAAAGGUAUACAGUUGGUCUGUUCA [hsa-mir-7107] too.
Reply: Condition not met

Ask: Now give it for ACCAUUCUUCGUAAGGGUGGU too.
Reply: Condition not met

Ask: Now give it for GUGUACAGGGAGGAGACUGUACGUGAGAGAUAGUCAGAUCCGCAUGUUAGAGCAGAGUCUCCUUCGUGUACAG [hsa-mir-4441] too.
Reply: Condition not met

Ask: Now give it for GGACAUCCUUCCAUAGUAAAUAAGCGGUGCC [hsa-mir-8064] too.
Reply: Condition met

Ask: Now give it for UGGUGCAAUAAUUGG [hsa-mir-1302-7] too.
Reply: Condition met

Ask: Now give it for UGGAGCCAGGGGGCCCAGGUCUACAGCUUCUCCCCGCUCCC [hsa-mir-6752] too.
Reply: Condition not met

Ask: Now give it for CCCCAGGGAUGCAAAUAAGGGG [IAV_invivo_PB1_2_Motif_14+IAV_invivo_PB1_2_Motif_14] too.
Reply: Condition met

Ask: Now give it for AAGGCGGGUGGUGCUCAGAUCGCCU [hsa-mir-326] too.
Reply: Condition not met

Ask: Now give it for ACUACUAUAGGCCGCUGGGAAGCAGU [hsa-mir-130b] too.
Reply: Condition met

Ask: Now give it for CCAAGGUUGUGCUUUUAGGAAAUGUUGGCUGUCCUGCGG [hsa-mir-5739] too.
Reply: Condition met

Ask: Now give it for GGUUCUUCCCGAAGC [hsa-mir-4710] too.
Reply: Condition not met

Ask: Now give it for CCCAUUGGAGAGUCCCCCAAAGGAGUGGAGGAAAGUUCCAUUGGG [IAV_invivo_PA_3_Motif_26+IAV_invivo_PA_3_Motif_26] too.
Reply: Condition not met

Ask: Now give it for CGAUAAACCCCUAAAUAGGGACUUUCCCG [hsa-mir-484] too.
Reply: Condition not met

Ask: Now give it for GCAGAUAGUGGUCCUCUCCGUGCUACCGC [hsa-mir-106b] too.
Reply: Condition not met

---

system: TO-N3-2 (biotin conjugate); assay: pull-down binding Z-score (relative to library population); higher = stronger binding; conditions: RNA library: Library-2
This listing pairs sequences with measured pull-down binding Z-score.

CUGGCCAUCAGUGUGGGCUAAC [hsa-mir-6732] = 0.569
UUUGUCAUUAAAGUAAUGCAAA [hsa-mir-548m] = -0.856
UGGGGUUGGGGUUGGGGUUGGGGUUGGGGUUGGGGU [G4_r(UGGGGU)6] = 4.95
CGCCCGACUUCGGGG [hsa-mir-4767] = 0.0319
CUGAGGACUGAGGCUCACCUUG [hsa-mir-6772] = 0.813

Ask: Recorded pull-down binding Z-score of GAGUGAAUC [hsa-mir-3610] , please.
Reply: -0.552

Ask: Now give it for CUUUCUGUUGGCUAAAAGAAAAGAAAG [hsa-mir-518e] too.
Reply: 0.0576

Ask: Now give it for GGGGCCGGGGCCGGGGCCGGGGCCGGGGCCGGGGCC [G4_r(GGGGCC)8] too.
Reply: 3.77

Ask: Now give it for AUAUGAGCUUCAUUUAUACAUUUCAUAU [hsa-mir-556] too.
Reply: -1.01

Ask: Now give it for CCCUGAACACAAUGACCAAAGAUGCUGAGAGAGGG [IAV_invivo_PB1_2_Motif_12+IAV_invivo_PB1_2_Motif_12] too.
Reply: 0.884

Ask: Now give it for AGAAAGUGAAACACUAUUUUAGGUUUU [hsa-mir-4458] too.
Reply: -0.248

Ask: Now give it for GGAGGCCCCGCCCUGCUGCCGACCCUGUGGAGCGGAGGGUGAAGCCUCC [hsa-mir-3180-5] too.
Reply: 1.98

Ask: Now give it for UAAAGAGUAUUCAACAUC [hsa-mir-1245b] too.
Reply: -0.373

Ask: Now give it for UGACAUGACUCUUGAGGAAAUGUCA [IAV_invivo_NS1_NEP_8_Motif_7+IAV_invivo_NS1_NEP_8_Motif_7] too.
Reply: -1.21

Ask: Now give it for ACAGCCAGUGCUCUCGUCUCCCCUCUGGCUGC [hsa-mir-192] too.
Reply: 0.949

Ask: Now give it for GCAGCCAAACUAAUGGUUGU too.
Reply: 0.312

Ask: Now give it for GCUUGCAUACGUAGACCAUUCUUAUGUUGUAAAUGCUGUUACGACCAUGUCAUAUCAACAUCACAUAAAUUAGUCUUGUCUGUUAAUCCGUAUGUUUGCAAUGC [DMSMaPseq_invitro_SARS-CoV-2_Motif_294] too.
Reply: -0.437

Ask: Now give it for CUCAAUGUAGUCUUGUAAGGAACAGGUUGAAG [hsa-mir-595] too.
Reply: 0.908

Ask: Now give it for ACACUAAUUCUUUCACACGUGGUGU [DMSMaPseq_invitro_SARS-CoV-2_Motif_381] too.
Reply: -0.973

Ask: Now give it for CGGCGGCGGCGGCGGCGGCGGCGGCGGCGGCGGCGGCGGCGGCGGCGG [G4_r(CGG)16] too.
Reply: 5.03

---

tested on: TO-3-N3 (biotin conjugate); assay: pull-down binding Z-score (relative to library population); higher = stronger binding; conditions: RNA library: Library-2
pull-down binding Z-score vs -0.4: at or above is yes, below is no.

GAAGCACUGGUUAUGAUUUGCAUC [hsa-mir-3126] = yes

Here's the next entry for you.
Ask: For this sequence, is measured pull-down binding Z-score -0.4 or higher? UAGGCACGGCACUUGUGAAAGAUCAGAAGCUGGUGUUUG
Reply: yes

---

This listing pairs sequences with measured pull-down binding Z-score.
system: TO-3-N3-2 (biotin conjugate); test: pull-down binding Z-score (relative to library population); higher = stronger binding; conditions: RNA library: Library-2
Form field (numeric): enter value without unit.

// worked examples, pull-down binding Z-score included
GGACUCAGCCCUGUGCUGAGCCC [hsa-mir-5587] = -0.313
GGCCAUCUGCUAUUCGUCCACCAACCUGACUUGAUCC [hsa-mir-7111] = 0.0293
AGGAGAAGGUGAGACCAAUGUCCUGGGUGCCACUCCU [hsa-mir-6124] = -0.00463
AUGAACCACAAAUCAU [DMSMaPseq_invitro_SARS-CoV-2_Motif_444] = -0.31

From here, focus on the item given below.
Ask: Recorded pull-down binding Z-score of GGCCACCCAGGGAGUAAGUAGCC [hsa-mir-4480] , please.
Reply: 0.908

---

test system: TO-N3-2 (biotin conjugate); assay: pull-down binding Z-score (relative to library population); higher = stronger binding; conditions: RNA library: Library-2
outcome_measure: pull-down binding Z-score
Form field (numeric): enter value without unit.

// worked examples, pull-down binding Z-score included
GUGAUGUGAGGAGCAACAGGCACCCUCCU [hsa-mir-6792] = 0.846
CGUACGCUUUAUCUGUGACGUAUG [hsa-mir-411] = -0.0511
CUUGUGGUAUUAGUCCGCACAAG [hsa-mir-100] = -0.096
CCACGCUCGUUCCGACACCGGAACGGCACUCGACACCGAGUGCAGCGUGG [3-way model-3_NoName] = 1.93
CUGUUUCUGGUGAAAUAUUCAAACAG [hsa-mir-4433a] = 0.256
CCCUGCACUCAGUUUGCACAGGG [hsa-mir-4511] = 0.0492
GAGACACUC [hsa-mir-6126] = -0.469
CUGUGAGGACAUCCAGGGUCACAG [hsa-mir-125a] = 0.969

Ask: Recorded pull-down binding Z-score of CUUCAUUAAAAGAAUUACUGCAAAAUGGUAUGAAUGGACGUACCAUAUUGGGUAGUGCUUUAUUAGAAG , please.
Reply: -0.219

Ask: Now give it for ACAGGAGUCACCUUUUGU [SHAPE_invitro_SARS-CoV-2_Motif_112] too.
Reply: -0.669

Data origin, for the record: the supplement of paper PMC11865577
